Where a name gives a salt, the structure may show the parent alone.
// values below are Ki; system is serotonin 2 receptor (Rattus norvegicus, UniProt P14842)
Sequence (P14842 whole entry): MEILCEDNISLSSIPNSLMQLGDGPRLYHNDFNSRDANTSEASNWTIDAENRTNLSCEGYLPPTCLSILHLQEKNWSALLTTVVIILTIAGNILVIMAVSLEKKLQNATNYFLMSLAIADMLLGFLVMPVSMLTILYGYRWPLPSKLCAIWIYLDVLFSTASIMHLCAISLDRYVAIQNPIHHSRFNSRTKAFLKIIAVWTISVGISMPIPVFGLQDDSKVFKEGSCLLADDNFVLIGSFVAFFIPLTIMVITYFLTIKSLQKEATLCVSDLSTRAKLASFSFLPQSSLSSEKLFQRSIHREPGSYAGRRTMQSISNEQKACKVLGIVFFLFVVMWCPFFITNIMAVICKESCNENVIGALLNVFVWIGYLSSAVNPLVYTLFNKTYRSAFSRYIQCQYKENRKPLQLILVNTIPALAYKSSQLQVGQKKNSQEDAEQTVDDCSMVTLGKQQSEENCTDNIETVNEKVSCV
endpoint label: Ki (nM)

>  <molecule>
CCCC(=O)Nc1ccc(-c2cc3ccccc3c(N3CCN(CC)CC3)n2)cn1 [Example 128, hydrochloride]

>  <reading>
3

$$$$
>  <molecule>
CCN1CCN(c2nc(-c3ccc(CCCCO)nc3)cc3ccccc23)CC1 [Example 137]

>  <reading>
32.5

$$$$
>  <molecule>
CCN1CCN(c2nc(-c3ccc(CCO)s3)cc3ccccc23)CC1 [Example 163, dihydrochloride]

>  <reading>
19.2

$$$$
>  <molecule>
CCN1CCN(c2nc(-c3ccc(CCC(C)O)cc3)cc3ccsc23)CC1 (centres unmarked) [Example 440, dihydrochloride]

>  <reading>
0.72

$$$$
>  <molecule>
CCN1CCN(c2nc(-c3ccc(CCCO)cc3)cc3ccsc23)CC1 [Example 432, hydrochloride]

>  <reading>
28.5

$$$$
>  <molecule>
CCN1CCN(c2nc(C#Cc3ccccc3)cc3ccccc23)CC1 [Example 177, Dihydrochloride]

>  <reading>
0.5

$$$$
>  <molecule>
CCN1CCN(c2nc(-c3ccc(CS(=O)(=O)N(CC)CC)cc3)cc3ccccc23)CC1 [Example 82, Hydrochloride]

>  <reading>
10.8

$$$$
>  <molecule>
CCN1CCN(c2nc(-c3ccc(C4(O)CCOCC4)cc3)cc3ccccc23)CC1 [Example 410]

>  <reading>
2.1

$$$$

###

pKi: −log10 of the molar value. Structures can show the parent of a compound that is named as a salt.
Record type: pKi measurement. Applies to: serotonin 2 receptor (Rattus norvegicus, UniProt P14842)
endpoint label: pKi

>  <compound>
CCN1CCN(c2nc(-c3ccc(CCCOC(C)C)nc3)cc3ccccc23)CC1 [Example 143, Oxalate]

>  <reading>
7.76

$$$$
>  <compound>
CCN1CCN(c2nc(-c3ccc4c(c3)CCC4O)cc3ccccc23)CC1 (centres unmarked) [Example 415]

>  <reading>
7.94

$$$$
>  <compound>
CCN1CCN(c2nc(/C=C/c3ccccn3)cc3ccccc23)CC1 [Example 209, Trihydrochloride]

>  <reading>
8.63

$$$$
>  <compound>
CCN1CCN(c2nc(-c3ccc(OCCn4ccnc4)cc3)cc3ccccc23)CC1 [Example 56, Hydrochloride]

>  <reading>
7.23

$$$$
>  <compound>
COc1ccc(-c2cc3ccsc3c(N3CCN(CCO)CC3)n2)cc1 [Example 276, hydrochloride]

>  <reading>
9.35

$$$$
>  <compound>
CCN1CCN(c2nc(-c3ccc(CCC(C)(C)O)c(F)c3)cc3ccccc23)CC1 [Example 416]

>  <reading>
9.15

$$$$
>  <compound>
CCN1CCN(c2nc(C(C)=Cc3ccccc3)cc3ccccc23)CC1 [Example 192]

>  <reading>
8.11

$$$$
>  <compound>
CCN1CCN(c2nc(-c3ccc(OCCO)c(Cl)c3)cc3ccsc23)CC1 [Example 437]

>  <reading>
7.74

$$$$

###

- tested target: serotonin 1A receptor (Rattus norvegicus, UniProt P19327)
- Construct: To the receptor fraction of the hippocampus were added a test compound and 0.5 nM of [^3H]; 8-hydroxy-dipropylaminotetralin; from tissue; host or cells: rat hippocampus membrane fraction
- Sequence (P19327 whole entry): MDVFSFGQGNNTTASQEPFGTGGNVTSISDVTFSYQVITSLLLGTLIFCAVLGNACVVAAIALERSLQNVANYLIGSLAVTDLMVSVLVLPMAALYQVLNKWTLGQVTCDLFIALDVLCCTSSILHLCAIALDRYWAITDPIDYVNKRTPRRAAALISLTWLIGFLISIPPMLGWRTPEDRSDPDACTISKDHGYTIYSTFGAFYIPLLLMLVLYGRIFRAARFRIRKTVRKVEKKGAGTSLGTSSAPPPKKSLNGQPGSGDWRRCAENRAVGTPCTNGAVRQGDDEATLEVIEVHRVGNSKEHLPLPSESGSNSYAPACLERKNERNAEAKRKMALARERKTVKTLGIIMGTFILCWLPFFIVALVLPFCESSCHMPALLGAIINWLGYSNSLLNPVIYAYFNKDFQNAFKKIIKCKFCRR
- assay info: Binding test on [3H] 8-hydroxy-dipropylaminotetralin, hippocampus receptor fraction
- Set-up: species or system SD rats
- condition info: rat hippocampus receptor fraction, 0.5 nM [3H] 8-OH-DPAT, room temperature 30 min; read-out: 5HT1
Where a name gives a salt, the structure may show the parent alone.
endpoint label: Ki (nM)

>  <compound>
CCN1CCN(c2nc(-c3ccc(C4CCCO4)cc3)cc3ccccc23)CC1 (stereo not shown) [Example 396, Dihydrochloride]

>  <output unit>
nM

>  <reading>
50.4

$$$$
>  <compound>
CCN1CCN(c2nc(-c3ccc(OC[C@@H](C)O)cc3)cc3ccccc23)CC1 [Example 403, Dihydrochloride]

>  <output unit>
nM

>  <reading>
28.4

$$$$
>  <compound>
CCC(=O)Nc1ccc(-c2cc3ccccc3c(N3CCN(CC)CC3)n2)cc1 [Example 69, Hydrochloride]

>  <output unit>
nM

>  <reading>
17.2

$$$$
>  <compound>
CCN1CCN(c2nc(-c3ccc(OC4CCCCC4O)cc3)cc3ccccc23)CC1 (stereo not shown) [Example 426, Hydrochloride]

>  <output unit>
nM

>  <reading>
133

$$$$

###

pKi: −log10 of the molar value. Structures can show the parent of a compound that is named as a salt.
# pKi measurements, system: UniProt P14842

>  <compound>
CCN1CCN(c2nc(-c3ccc(C(O)CCO)cc3)cc3ccccc23)CC1 (centres unmarked) [Example 24, hydrochloride]

>  <pKi>
8.13

$$$$
>  <compound>
CCN1CCN(c2nc(-c3ccc(OCCCO)cc3)cc3ccsc23)CC1 [Example 434, dihydrochloride]

>  <pKi>
7.22

$$$$
>  <compound>
CCCNC(=O)Cc1ccc(-c2cc3ccccc3c(N3CCN(CC)CC3)n2)cc1 [Example 88, Hydrochloride]

>  <pKi>
7.93

$$$$
>  <compound>
CCN1CCN(c2nc(-c3ccc(OC)cc3)cc3ccoc23)CC1 [Example 467, dihydrochloride]

>  <pKi>
7.03

$$$$
>  <compound>
CCN1CCN(c2nc(-c3ccc(S(C)(=O)=O)cc3)cc3ccccc23)CC1 [Example 342, dihydrochloride]

>  <pKi>
7.83

$$$$
>  <compound>
CCN1CCN(c2nc(-c3ccc(OCCO)cc3)cc3cccnc23)CC1 [Example 245, Dihydrochloride]

>  <pKi>
7.14

$$$$
>  <compound>
CCN1CCN(c2nc(N3CCN(c4ccccn4)CC3)cc3ccccc23)CC1 [Example 159]

>  <pKi>
7.88

$$$$
>  <compound>
CCN1CCN(c2nc(/C=C(\C)c3ccccc3)cc3ccccc23)CC1 [Example 196]

>  <pKi>
8.19

$$$$

###

- tested target: serotonin 1A receptor (Rattus norvegicus)
- Construct: To the receptor fraction of the hippocampus were added a test compound and 0.5 nM of [^3H]; 8-hydroxy-dipropylaminotetralin; from tissue; host or cells: rat hippocampus membrane fraction
- assay info: Binding test on [3H] 8-hydroxy-dipropylaminotetralin, hippocampus receptor fraction
- Parameters: species or system SD rats
- condition info: rat hippocampus receptor fraction, 0.5 nM [3H] 8-OH-DPAT, room temperature 30 min; read-out: 5HT1
pKi: −log10 of the molar value. Structures can show the parent of a compound that is named as a salt.
endpoint label: pKi

>  <compound>
CCN1CCN(c2nc(-c3cccc(OCCO)c3)cc3ccccc23)CC1 [Example 329, dihydrochloride]

>  <reading>
7.50

$$$$
>  <compound>
CCN1CCN(c2nc(-c3cccc(OC)c3)cc3ccccc23)CC1 [Example 9, Dihydrochloride]

>  <reading>
7.24

$$$$
>  <compound>
CCN1CCN(c2nc(-c3ccc(N4CCSCC4)nc3)cc3ccsc23)CC1 [Example 264, Hydrochloride]

>  <reading>
7.21

$$$$
>  <compound>
CCN1CCN(c2nc(/C=C(\C)c3cccc(N4CCOCC4)c3)cc3ccccc23)CC1 [Example 207, Oxalate]

>  <reading>
7.65

$$$$

###

The compounds listed here are annotated with their melting point.
Counter-ions that a name gives are not always drawn.

>  <compound>
CCN1CCN(c2nc(-c3ccc(CCC(C)O)cc3)cc3ccccc23)CC1 (centres unmarked) (as salt: oxalate)

>  <melting point>
193 to 194 °C

$$$$
>  <compound>
CCN1CCN(c2nc(-c3ccccc3OCCO)cc3ccccc23)CC1 (as salt: hydrochloride)

>  <melting point>
158 to 160 °C

$$$$
>  <compound>
CCN1CCN(c2nc(-c3ccccc3O)cc3ccccc23)CC1.Cl

>  <melting point>
228 to 230 °C

$$$$
>  <compound>
CCN1CCN(c2nc(-c3ccc(OCCCC(C)(C)O)cc3)cc3sccc23)CC1 (as salt: hydrochloride)

>  <melting point>
116 to 118 °C

$$$$
>  <compound>
CCN1CCN(c2nc(-c3ccc(C4=CCOCC4)cc3)cc3ccsc23)CC1 (as salt: hydrochloride)

>  <melting point>
176 to 179 °C

$$$$
>  <compound>
CCN1CCN(c2nc(-c3ccc(C4=CCC(O)CC4)cc3)cc3ccsc23)CC1 (centres unmarked) (as salt: hydrochloride)

>  <melting point>
168 to 170 °C

$$$$
>  <compound>
CCN1CCN(c2nc(-c3ccc(O)cc3)cc3sccc23)CC1 (as salt: hydrochloride)

>  <melting point>
173 to 175 °C

$$$$
>  <compound>
CCN1CCN(c2nc(-c3ccc(OCCO)cc3)cc3ccccc23)CC1 (as salt: hydrochloride) [Example 36, dihydrochloride]

>  <melting point>
127 to 129 °C

$$$$
>  <compound>
CCN1CCN(c2nc(-c3ccc(OCCO)cc3)cc3cccc(F)c23)CC1 (as salt: hydrochloride) [Example 234, dihydrochloride]

>  <melting point>
215 to 219 °C

$$$$
>  <compound>
CCN1CCN(c2nc(-c3ccc(CC(C)(C)CO)cc3)cc3ccsc23)CC1 (as salt: hydrochloride) [Example 442, dihydrochloride]

>  <melting point>
113 to 114 °C

$$$$
>  <compound>
CCN1CCN(c2nc(-c3ccc(C(=O)NC)cc3)cc3ccccc23)CC1 (as salt: hydrochloride) [Example 365, dihydrochloride]

>  <melting point>
161.5 to 163 °C

$$$$
>  <compound>
CCN1CCN(c2nc(-c3ccc(CCC(C)(C)O)c(F)c3)cc3ccccc23)CC1 (as salt: hydrochloride)

>  <melting point>
206 to 207 °C

$$$$
>  <compound>
CCC(C)NS(=O)(=O)c1ccc(-c2cc3ccccc3c(N3CCN(CC)CC3)n2)cc1 (centres unmarked) (as salt: hydrochloride) [Example 360, dihydrochloride]

>  <melting point>
155 to 156 °C

$$$$
>  <compound>
CCN1CCN(c2nc(-c3ccc(OCCOC)nc3)cc3ccsc23)CC1 (as salt: hydrochloride)

>  <melting point>
116 to 118 °C

$$$$
